meta.source: patent US20260209362A1

Reported dMFI values for the following binders.
# assayed.system: T1, human IL-12Rβ2 (human, UniProt Q99665 24-862)
# T1 construct: Expressed on HEK293T cells transiently transfected with a pcDNA3 plasmid (Genscript clone OHu21785); also called hIL-12RB2; IL-12 receptor β2 subunit
# T1 sequence: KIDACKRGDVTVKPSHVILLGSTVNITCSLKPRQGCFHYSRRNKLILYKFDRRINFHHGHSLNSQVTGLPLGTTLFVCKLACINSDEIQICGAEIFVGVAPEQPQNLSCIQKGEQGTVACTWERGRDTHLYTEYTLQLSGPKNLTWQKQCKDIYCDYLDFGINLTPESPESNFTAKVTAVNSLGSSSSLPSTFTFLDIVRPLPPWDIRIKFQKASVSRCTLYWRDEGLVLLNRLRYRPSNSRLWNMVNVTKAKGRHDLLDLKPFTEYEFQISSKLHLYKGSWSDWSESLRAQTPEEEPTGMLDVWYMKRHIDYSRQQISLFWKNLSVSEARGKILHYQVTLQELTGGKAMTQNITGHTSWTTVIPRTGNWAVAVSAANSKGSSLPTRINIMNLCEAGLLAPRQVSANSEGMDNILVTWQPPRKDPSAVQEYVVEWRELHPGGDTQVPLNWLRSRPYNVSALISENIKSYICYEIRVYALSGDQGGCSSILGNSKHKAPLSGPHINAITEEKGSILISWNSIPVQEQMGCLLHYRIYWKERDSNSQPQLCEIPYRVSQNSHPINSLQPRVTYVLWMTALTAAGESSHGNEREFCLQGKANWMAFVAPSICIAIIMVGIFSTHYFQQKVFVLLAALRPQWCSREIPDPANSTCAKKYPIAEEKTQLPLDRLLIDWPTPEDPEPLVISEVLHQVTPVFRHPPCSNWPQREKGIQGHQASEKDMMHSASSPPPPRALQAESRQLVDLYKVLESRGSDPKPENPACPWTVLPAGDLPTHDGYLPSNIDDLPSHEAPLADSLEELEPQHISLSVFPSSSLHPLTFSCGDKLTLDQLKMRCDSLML
# assay.notes: flow cytometry, P.E. on transfected HEK293T cells
Returns: the value as a bare number; no unit string appended.

// below: answered binders
### Prompt # lookup: dMFI of anti-IL-12Rβ2 VHH clone 3CRH38 (VHH, not shown: small tags and cut ends, periplasmic extract) VHH: QVQLQESGGGLVQAGGSLVLSCAASGSAALIFLMSWYRQAPGKQRELVAEVSRGGSTTYADSVEGRFTISRDNAKNIVDLQMNSLKPEDTAVYYCKADQNYGDSLRSSWGRGTQVTVSS
### Response 537

### Prompt Try this binder next: anti-IL-12Rβ2 VHH clone 3CRHS99 (VHH, not shown: small tags and cut ends, periplasmic extract) VHH: QVQLQESGGGLVQPGGSLRLSCKASGFTFSTYAMSWVRQAPGKGLEWVSAINSGGLSTDYADSVEGRFTISRDDAKNMLFLQMNSLKAEDTARYYCAKYEDCSDYMCHRDRAGYWGQGTQVTVSS
### Response 980

### Prompt Try this binder next: anti-IL-12Rβ2 VHH clone 3CRHS106 (VHH, not shown: small tags and cut ends, periplasmic extract) VHH: QVQLQESGGGLVQPGGSLRLSCKASGFTFSTYAMSWVRQAPGKGLEWVSAVNSGGLSTDYADSVEGRFTISRDDAKNMLFLQMNSLKPEDTARYYCAKYEDCSDYMCHRDRAGYWGQGTQVTVSS
### Response 1110

Let us examine a further case.
### Prompt # lookup: dMFI of anti-IL-12Rβ2 VHH clone 3CRH93 (VHH, not shown: small tags and cut ends, periplasmic extract) VHH: QVQLQESGGGLVQAGGSLRLSCAASGRTVDSYAMGWFRQTPGKEREFVAASWGGGSTYYADSVKGRFTISRDNVKNTMYLQMDSLKPEDTAVYYCAAGPTYYSGPINDNWEGRYDSWGQGTQVTVSS
### Response 580
